Values compiled from the supplement of paper PMC4862054.

The reader will find reported drug sensitivity score values listed item by item below.
tested on: HDQ-P1; assay: drug sensitivity score (DSS), CellTox Green (DSS (AUC-based score)); higher = stronger drug effect (viability inhibition or cytotoxicity); extreme values may be limits of the assay; settings: incubation time: 72 h
Would you mind answering with just the numeric figure?

Example entries and their recorded answers appear below.
Cc1c(C(=O)Nc2ccc(N3C[C@@H](C)O[C@@H](C)C3)nc2)cccc1-c1ccc(OC(F)(F)F)cc1	0
C[C@]12C=CC(=O)C=C1CC[C@@H]1[C@@H]2C(=O)C[C@@]2(C)[C@H]1CC[C@]2(O)C(=O)CO	0
CO[C@H](C(=O)[C@@H](O)[C@@H](C)O)[C@@H]1Cc2cc3cc(O[C@H]4C[C@@H](O[C@@H]5C[C@@H](O)[C@H](O)[C@@H](C)O5)[C@H](O)[C@@H](C)O4)c(C)c(O)c3c(O)c2C(=O)[C@H]1O[C@H]1C[C@@H](O[C@@H]2C[C@@H](O)[C@@H](O[C@@H]3C[C@](C)(O)[C@H](O)[C@@H](C)O3)[C@@H](C)O2)[C@H](O)[C@@H](C)O1	0
N[C@@H](Cc1ccc(N(CCCl)CCCl)cc1)C(=O)O	18.4
CCCCCOC(=O)Nc1nc(=O)n([C@@H]2O[C@H](C)[C@@H](O)[C@H]2O)cc1F	0

## Task # drug sensitivity score lookup, item CN1CCN(c2nc(C3=C(c4c[nH]c5ccccc45)C(=O)NC3=O)c3ccccc3n2)CC1
## Result 0
